pIC50: −log10 of the molar value.
The entries below pair molecules with pIC50 values for Serine/threonine-protein kinase B-raf (Homo sapiens, UniProt P15056), as found in several publications.
Measured property: pIC50

> print(dat)
                            smiles.structure      measured
 1  CCCS(=O)(=O)Nc1ccc(F)c(C(=O)c2c[nH]c3ncc(-c4ccc(CCCOC)nc4)cc23)c1F        > 8.00
 2  O=C(c1cc(NS(=O)(=O)c2ccc(OC(F)(F)F)cc2)ccc1F)c1c[nH]c2ncccc12        ≥ 5.00
 3  N#Cc1cnc2[nH]cc(C(=O)c3cccc(NS(=O)(=O)c4ccc(C(F)(F)F)cc4)c3F)c2c1        ≥ 5.00
 4  O=C(c1c(F)ccc(NS(=O)(=O)C(F)(F)F)c1F)c1c[nH]c2ncc(-c3ccc(F)cc3)cc12        ≥ 5.00
 5  CCCS(=O)(=O)Nc1ccc(F)c(C(=O)c2c[nH]c3ncc(-c4cnn(CCN5CCOCC5)c4)cc23)c1F        ≥ 5.00
 6  CCCS(=O)(=O)Nc1ccc(F)c(C(=O)c2c[nH]c3ncc(-c4ccc(C#CCN(CC)CC)nc4)cc23)c1F        > 8.00
 7  COc1ccnc2[nH]cc(C(=O)c3c(F)ccc(NS(=O)(=O)C(C)C)c3F)c12        ≥ 5.00
 8  O=C(Nc1ccc(F)c(C(F)(F)F)c1)Nc1ccc(Oc2ccnc(NC(=O)C3CC3)c2)cc1F          7.89
 9  CCCS(=O)(=O)Nc1cc(F)c(F)c(C(=O)c2ccc3nccnc3c2)c1F  7.00 to 7.30
10  O=C(Nc1ccc(Oc2ncnc3cc(OCCCN4CCOCC4)c4c(c23)OCCO4)c(F)c1)Nc1ccc(Cl)c(C(F)(F)F)c1  6.30 to 6.70
11  N#Cc1ccnc2[nH]cc(C(=O)c3c(F)ccc(NS(=O)(=O)CCC(F)(F)F)c3F)c12        ≥ 5.00
12  CCCS(=O)(=O)Nc1ccc(F)c(C(=O)c2c[nH]c3ncc(-c4ccc(Cl)nc4)cc23)c1F        > 8.00
13  CCCS(=O)(=O)Nc1cc(F)c(F)c(C(=O)c2ccc3ncc(C)nc3c2)c1F  6.00 to 7.00
14  Cn1cc(-c2cnc3[nH]cc(C(=O)c4c(F)ccc(NS(=O)(=O)c5cccc(OC(F)F)c5)c4F)c3c2)cn1        ≥ 5.00
15  O=C(Nc1ccc(Oc2ccnc(NC(=O)C3CC3)c2)c(F)c1)Nc1ccc(Cl)c(C(F)(F)F)c1          8.44
16  O=C(c1c(F)ccc(NS(=O)(=O)CCC(F)(F)F)c1F)c1c[nH]c2ncc(-c3ccc(F)cc3)cc12        ≥ 5.00
17  CCCS(=O)(=O)Nc1ccc(F)c(C(=O)c2c[nH]c3ncc(C(=O)NC4CC4)cc23)c1F        ≥ 5.00
18  O=C(O)CCc1cccc(-c2cnc3[nH]cc(C(=O)c4cccc(NS(=O)(=O)c5cccnc5)c4)c3c2)c1        ≥ 5.00
19  O=C(c1c(F)ccc(NS(=O)(=O)c2cccnc2)c1F)c1c[nH]c2ncncc12        ≥ 5.00
20  O=C(c1c(F)ccc(NS(=O)(=O)C2CCC2)c1F)c1c[nH]c2ncc(Cl)cc12        ≥ 5.00
21  Cc1cc(-c2sc(N)nc2-c2cccc(NC(=O)c3c(F)cccc3F)c2)nc(Nc2cccc(F)c2)n1        < 6.00
22  Cn1cc(-c2cnc3[nH]cc(C(=O)c4cc(NS(=O)(=O)c5cccc(OC(F)(F)F)c5)ccc4F)c3c2)cn1        ≥ 5.00
23  COc1cnc2[nH]cc(C(=O)c3c(F)ccc(NS(=O)(=O)CCC(F)(F)F)c3F)c2c1        ≥ 5.00
24  CN1CCN(CCNc2nccc(-c3c(-c4cccc(O)c4)nc4occn34)n2)S1(=O)=O          8.49
25  CCCS(=O)(=O)Nc1ccc(F)c(C(=O)c2c[nH]c3ncc(C#CCOC)cc23)c1F        > 7.00
26  CCCS(=O)(=O)Nc1ccc(F)c(C(=O)c2c[nH]c3ncc(C(=O)OCC)cc23)c1F        ≥ 5.00
27  Cc1cc(Oc2ccnc(NC(=O)C3CC3)c2)ncc1NC(=O)Nc1cc(C(C)(F)F)ccc1F          8.21
28  COc1ncc(-c2cnc3[nH]cc(C(=O)c4c(F)ccc(NS(=O)(=O)c5ccccc5F)c4F)c3c2)cn1        ≥ 5.00
29  Cc1cc(Oc2cc(NC(=O)C3CC3)ncn2)ccc1NC(=O)Nc1ccc(Cl)c(C(C)(F)F)c1          7.35
30  CCCS(=O)(=O)Nc1ccc(F)c(C(=O)c2c[nH]c3ncc(-c4cnc(N5CCCC5)nc4)cc23)c1F        ≥ 5.00
31  CCCc1ccc(S(=O)(=O)Nc2ccc(F)c(C(=O)c3c[nH]c4ncc(-c5ncc(C)[nH]5)cc34)c2F)cc1        ≥ 5.00

---

The entries below pair molecules with IC50 values for Serine/threonine-protein kinase B-raf (Homo sapiens, UniProt P15056), as found in several publications.
Measured property: IC50

> print(dat)
                            smiles.structure                             tested.target  measured.property   measured
 1  COc1ccnc2[nH]cc(C(=O)c3cccc(NS(=O)(=O)c4ccc(C(F)(F)F)cc4)c3F)c12  Serine/threonine-protein kinase B-raf (Homo sapiens, UniProt P15056)               IC50    ≤ 10 µM
 2  Oc1ccc2cc(-c3nc(-c4ccccc4)[nH]c3-c3ccncc3)ccc2c1  Serine/threonine-protein kinase B-raf (Homo sapiens, UniProt P15056)               IC50     0.3 µM
 3  N#Cc1cnc2[nH]cc(C(=O)c3c(F)ccc(NS(=O)(=O)N4CCOCC4)c3F)c2c1  Serine/threonine-protein kinase B-raf (Homo sapiens, UniProt P15056)               IC50    ≤ 10 µM
 4  Cc1cc(Oc2ccnc(NC(=O)C3CC3)c2)ccc1NC(=O)Nc1cccc(OC(F)(F)F)c1  Serine/threonine-protein kinase B-raf (Homo sapiens, UniProt P15056)               IC50  0.0088 µM
 5  COc1ncc(-c2cnc3[nH]cc(C(=O)c4c(F)ccc(NS(=O)(=O)c5ccccn5)c4F)c3c2)cn1  Serine/threonine-protein kinase B-raf (Homo sapiens, UniProt P15056)               IC50    ≤ 10 µM
 6  CC(C)CS(=O)(=O)Nc1ccc(F)c(C(=O)c2c[nH]c3ncc(-c4ccc(F)cc4)cc23)c1F  Serine/threonine-protein kinase B-raf (Homo sapiens, UniProt P15056)               IC50    ≤ 10 µM
 7  CCCS(=O)(=O)Nc1ccc(F)c(C(=O)c2c[nH]c3ncc(-c4ccc(OCCN5CCOCC5)nc4)cc23)c1F  Serine/threonine-protein kinase B-raf (Homo sapiens, UniProt P15056)               IC50    ≤ 10 µM
 8  CS(=O)(=O)c1cc(NC(=O)Nc2ccc(Oc3ccnc(NC(=O)C4CC4)c3)c(F)c2)cc(C(F)(F)F)c1  Serine/threonine-protein kinase B-raf (Homo sapiens, UniProt P15056)               IC50   0.026 µM
 9  COc1ncc(-c2cnc3[nH]cc(C(=O)c4c(F)ccc(NS(=O)(=O)c5ccc(F)cc5F)c4F)c3c2)cn1  Serine/threonine-protein kinase B-raf (Homo sapiens, UniProt P15056)               IC50    ≤ 10 µM
10  CCCS(=O)(=O)Nc1ccc(F)c(C(=O)c2c[nH]c3ncc(-c4cnc(OC)nc4OC)cc23)c1F  Serine/threonine-protein kinase B-raf (Homo sapiens, UniProt P15056)               IC50   < 0.1 µM
11  Cc1cnc2[nH]cc(C(=O)c3c(F)ccc(NS(=O)(=O)c4ccc(C(F)(F)F)cc4)c3F)c2c1  Serine/threonine-protein kinase B-raf (Homo sapiens, UniProt P15056)               IC50    ≤ 10 µM
12  CCCS(=O)(=O)Nc1ccc(F)c(C(=O)c2c[nH]c3ncc(CCC(=O)NOC)cc23)c1F  Serine/threonine-protein kinase B-raf (Homo sapiens, UniProt P15056)               IC50    ≤ 10 µM
13  CCNC(=O)CCc1cnc2[nH]cc(C(=O)c3c(F)ccc(NS(=O)(=O)c4ccc(C(F)(F)F)cc4)c3F)c2c1  Serine/threonine-protein kinase B-raf (Homo sapiens, UniProt P15056)               IC50    ≤ 10 µM
14  O=C(Nc1ccc(Oc2cc(NC(=O)C3CC3)ncn2)cc1F)Nc1cc(C(F)(F)F)ccc1F  Serine/threonine-protein kinase B-raf (Homo sapiens, UniProt P15056)               IC50   0.031 µM
15  O=C(c1c(F)ccc(NS(=O)(=O)c2c(F)cccc2F)c1F)c1c[nH]c2ncc(Cl)cc12  Serine/threonine-protein kinase B-raf (Homo sapiens, UniProt P15056)               IC50    ≤ 10 µM
